Tgt: Bem1-2, P29366
Sequence (P29366 139-227): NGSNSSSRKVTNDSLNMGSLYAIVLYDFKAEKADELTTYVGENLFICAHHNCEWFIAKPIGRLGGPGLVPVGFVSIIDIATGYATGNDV
Assay Method Text: SPOT array
Details: median of control spots 4347
Property Measured: SPOT intensity

Some solved cases for reference:
binder=TYNRTAFQIPGDQSI measured_number=0
binder=RRRIAYPFYPFKKLG measured_number=3

A. KRNRLKILLPFLEQS
B. SNRRPVPRRPSQPLN
-- ask Pick one: A or B . Which has the bigger SPOT intensity number? Please respond with the label that marks your chosen entry.
-- reply B
